Data credit: patent US11273153B2

Experiment: In vitro metabolic stability, mouse liver microsomes
Format: in vitro ADME
Settings: NADPH-dependent, read-out: Apparent Degradation half-life
endpointName: half-life

OCCC#Cc1sc(-c2ccc(F)cc2)c(-c2ccncc2)c1CCCc1ccccc1 = ~5 min

Switching to the query record.
// half-life value for OCCC#Cc1cc(-c2ccncc2)c(-c2ccc(F)cc2)s1 : 9 min

----------
Target: UniProt Q16539
Assay: Radioactive (33P-labelled ATP) filter binding assay of p38α MAPK activity
Assay type: biochemical
Conditions: read-out: IC50 (inhibitory activity against p38α MAPK)
Listed compounds paired with reported IC50
// note: answer is a bare numeric in nM

Fc1ccc(-c2scc(CCCc3ccccc3)c2-c2ccncc2)cc1 = 270
OC(CCc1ccccc1)c1csc(-c2ccc(F)cc2)c1-c1ccncc1 (stereo not drawn) = 260

Proceed to the following item.
Record for OCCC#Cc1sc(-c2ccc(F)cc2)c(-c2ccncc2)c1C(O)CCc1ccccc1 (stereo not drawn) under target or system UniProt Q16539: IC50 reported as 4720

----------
Biological target: inactive non-phosphorylated p38α MAPK (Homo sapiens (Human), UniProt Q16539)
Sequence (Q16539 whole entry): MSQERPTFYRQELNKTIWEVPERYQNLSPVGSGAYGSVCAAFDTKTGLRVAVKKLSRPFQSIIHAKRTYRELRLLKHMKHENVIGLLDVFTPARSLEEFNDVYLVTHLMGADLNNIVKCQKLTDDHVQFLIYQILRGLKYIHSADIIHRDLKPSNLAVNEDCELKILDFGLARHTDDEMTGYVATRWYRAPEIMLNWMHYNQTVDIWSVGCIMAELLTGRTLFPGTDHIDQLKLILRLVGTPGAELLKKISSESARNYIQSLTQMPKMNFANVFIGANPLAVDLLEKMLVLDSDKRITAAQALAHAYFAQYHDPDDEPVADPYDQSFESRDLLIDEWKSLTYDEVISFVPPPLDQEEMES
Assay: Fluorescence polarisation (FP) binding assay, inactive enzyme
Settings: Table 6; read-out: Ki ± SEM (μM) to inactive p38α
endpointName: Ki

Some entries whose results are on file:
O=C(Nc1ccc(-c2c(C#CCCO)sc(-c3ccc(F)cc3)c2-c2ccncc2)cc1)c1ccccc1 = > 10 µM
O=C(Nc1cccc(-c2c(C#CCCO)sc(-c3ccc(F)cc3)c2-c2ccncc2)c1)c1ccccc1 = > 10 µM
CC(=O)c1ccc(-c2c(C#CCCO)sc(-c3ccc(F)cc3)c2-c2ccncc2)cc1 = > 10 µM

Measured Ki, O=C(CCCO)c1cc(-c2ccncc2)c(-c2ccc(F)cc2)s1 : 2.7 µM

Ki for CCOC(=O)c1cc(-c2ccncc2)c(-c2ccc(F)cc2)s1 is 6 µM

Ki reported for this compound OCCC#Cc1sc(-c2ccc(F)cc2)c(-c2ccncc2)c1-c1ccc(Cl)cc1 : > 10 µM

Please fill in: Ki reported for Nc1nc(N)c(F)c(-c2cc(-c3ccncc3)c(-c3ccc(F)cc3)s2)c1F = 0.47 µM

GET /value?item= OCCC#Cc1sc(-c2ccc(F)cc2)c(-c2ccncc2)c1-c1ccc(C(F)(F)F)cc1 &field=Ki returns > 10 µM

----------
microsomal CLint by entry:
Assay: In vitro metabolic stability, human liver microsomes
Type: in vitro ADME
Settings: read-out: In vitro CLint (μL/min/mg protein)
// note: answer is a bare numeric in µL/min/mg

OCCC#Cc1cc(-c2ccncc2)c(-c2ccc(F)cc2)s1 [Compound 4.5] = 24

Then this compound:
// recorded microsomal CLint for OCCC#Cc1sc(-c2ccc(F)cc2)c(-c2ccncc2)c1CCCc1ccccc1 [Compound 4.1] : 219

----------
Biological target: inactive non-phosphorylated p38α MAPK (Homo sapiens (Human))
Test: Fluorescence polarisation (FP) binding assay, inactive enzyme
Conditions: read-out: Ki to inactive non-phosphorylated p38α MAPK
endpointName: Ki (nM)
Please state the figure in nM; there is no need to write the unit.

Test item Nc1nc(N)c(F)c(-c2cc(-c3ccncc3)c(-c3ccc(F)cc3)s2)c1F ; inactive non-phosphorylated p38α MAPK (Homo sapiens (Human)); reported Ki was 470

----------
Target: active phosphorylated p38α MAPK (Homo sapiens (Human), UniProt Q16539)
Experiment: Fluorescence polarisation (FP) binding assay, active enzyme
Details: read-out: Ki to active p38α MAPK
endpointName: pKi
Notebook: values listed as pKi are -log10 of the concentration (mol/L).

Consider the following illustrative entries.
O=C(CCCO)c1cc(-c2ccncc2)c(-c2ccc(F)cc2)s1 = 6.17
Fc1ccc(-c2sc(C#CCCN3CCOCC3)cc2-c2ccncc2)cc1 = 5.60

Per the records, this compound ( OCCCCc1cc(-c2ccncc2)c(-c2ccc(F)cc2)s1 ) has pKi equal to 6.60
